Data provenance: patent US12590094B2

# System: PK1 neuroblastoma cells treated with TPrP
# measurement.protocol: cells
# Type: cell-based
# measurement.context: Neuroblastoma cell, read-out: Viability EC50
pEC50: −log10 of the molar value.
Classification field: enter criterion met for pEC50 values not below 6, criterion not met for values below it.

INSERT INTO assay_data (compound, measured_target, answer_label) VALUES
  ('COc1ccc(-c2cc(=O)c3c(OC)c(OC)c(OC)c(OC)c3o2)cc1OC [SR-01000712262]', 'PK1 neuroblastoma cells treated with TPrP', 'criterion met'),
  ('Cc1nc2sccn2c1-c1csc(Nc2ccc(S(N)(=O)=O)cc2)n1 [SR1-477230]', 'PK1 neuroblastoma cells treated with TPrP', 'criterion met'),
  ('NS(=O)(=O)c1ccc(Nc2nc(-c3cccnc3)cs2)cc1 [SR1-809850]', 'PK1 neuroblastoma cells treated with TPrP', 'criterion met'),
  ('CC(=O)Nc1cccc(-c2csc(Nc3ccc(S(N)(=O)=O)cc3)n2)c1 [SR1-364643]', 'PK1 neuroblastoma cells treated with TPrP', 'criterion met'),
  ('COc1ccc2c3c([nH]c2c1)C(C)=NCC3 [SR1-721899, harmaline]', 'PK1 neuroblastoma cells treated with TPrP', 'criterion not met'),
  ('COc1ccc(C2CC(=O)c3cc(OC)ccc3O2)cc1 (stereo not drawn) [SR5-2542]', 'PK1 neuroblastoma cells treated with TPrP', 'criterion not met'),
  ('Cc1nc(C)c(-c2csc(Nc3ccc(S(N)(=O)=O)cc3)n2)s1 [SR1-477302]', 'PK1 neuroblastoma cells treated with TPrP', 'criterion met'),
  ('COc1ccc(-c2cc(=O)c3c(O)cc(OC)cc3o2)cc1 [SR5-2549]', 'PK1 neuroblastoma cells treated with TPrP', 'criterion not met');
